Test system: TNF-α
Assay Name: TNF-α inhibition in LPS-activated THP-1 cells (Human TNF-α ELISA of supernatants)
Type: cell-based
Condition Set: PMA-differentiated THP-1 cells activated with 50 ng/mL LPS, 4 h, mean ± SEM of triplicate
Assay Metric: IC50 (µM)
Output spec: scalar in µM, unitless text.

Readout IC50 for `CC(=O)CCCCn1c(=O)c2c(ncn2C)n(C)c1=O` , test system TNF-α, was 341
